- protocol.description: RPL19A-GFP modulators, yeast TOR pathway, confirmation, cell-based, S. cerevisiae, flow cytometry, cherry picks, mother/daughter gates (AID 2270)
- conditions: S. cerevisiae RPL19A-GFP strain, 3 h, at 10 µM, stronger effect = lower value, 100 = same GFP as DMSO wells
Below: a set of entries, each annotated with reported GFP response vs DMSO.
value.type: GFP response vs DMSO (%)

In [3]: df
Out[3]:
                                    compound            value_type  numeric_result
 0  CCCn1c(=O)c(C(=O)Nc2ccccc2C(=O)OCC)c(O)c2ccccc21  GFP response vs DMSO            95.1
 1      O=C(NNC(=S)NC(=O)c1ccco1)c1ccc(F)cc1  GFP response vs DMSO             106
 2  Cc1cc(C)c(S(=O)(=O)NCC23C=CC(O2)C2C(=O)N(c4ccccc4)C(=O)C23)c(C)c1 (stereo not given)  GFP response vs DMSO             102
 3  O=C1c2ccccc2C(=O)C2OC12 (stereo not given)  GFP response vs DMSO             101
 4  Cc1nnc(NC(=O)c2ccc(S(=O)(=O)N3CCCCCC3)cc2)o1  GFP response vs DMSO            99.4
 5       Cc1cc(N=Nc2ccccc2C(=O)O)c(C)c(C)c1O  GFP response vs DMSO            99.8
 6  CC1=NOC(=O)/C1=C\c1ccc(-c2cc(Cl)ccc2Cl)o1  GFP response vs DMSO            97.1
 7  O=C1C2C3C=CC(CNS(=O)(=O)c4ccccc4)(O3)C2C(=O)N1c1ccc(Cl)cc1 (stereo not given)  GFP response vs DMSO             102
 8  CCCS(=O)(=O)N1CCC(C(=O)c2cccc(C(F)(F)F)c2)CC1  GFP response vs DMSO            98.8
 9  CCOC(=O)C1=C(C)N=C2SC(C(=O)OC)=CC(=O)N2C1c1ccc(F)cc1 (stereo not given)  GFP response vs DMSO             103
10  NS(=O)(=O)c1ccc(Sc2ccccn2)c([N+](=O)[O-])c1  GFP response vs DMSO            97.4
11  Cc1ccccc1N1C(=O)CC(Sc2nnc(-c3ccccc3)o2)C1=O (stereo not given)  GFP response vs DMSO            94.6
12         O=C(c1ccccc1F)N1CCN(c2ccccc2F)CC1  GFP response vs DMSO             101
13  Cc1onc(-c2c(Cl)cccc2Cl)c1NC(=O)NNc1c(Cl)cncc1Cl  GFP response vs DMSO            99.8
14      O=C(Nc1cccnc1)c1ccc(-c2ccc(Cl)cc2)o1  GFP response vs DMSO            97.2
15        Cc1nc(C)c(-c2csc(NCCc3ccccc3)n2)s1  GFP response vs DMSO            96.7
16  CCN(c1ccccc1)S(=O)(=O)c1ccc(C(=O)Nc2nnc(COC)o2)cc1  GFP response vs DMSO             101
17  Cc1nn(Cc2c(Cl)cccc2Cl)c(C)c1NC(=O)c1sc2ccccc2c1Cl  GFP response vs DMSO            94.8
18                Cc1ccccc1C(=O)Nc1cccc(N)c1  GFP response vs DMSO              99
19  COc1ccc(N2C(=O)C(Cl)=C(NCc3ccccc3)C2=O)cc1  GFP response vs DMSO            96.5
20  CCCc1nn(-c2ccccc2)c2c1C(c1cccs1)C(C#N)=C(N)O2 (stereo not given)  GFP response vs DMSO             101
21   Cc1ccc(N2CCN(C(=O)c3ccccc3Br)CC2)c(C)c1  GFP response vs DMSO             100
22             Cc1[nH]c(-c2ccccn2)nc(=S)c1Cl  GFP response vs DMSO             106
23  CC(C)C(=O)Nc1ccc(NC(=O)c2cc3ccccc3o2)cc1  GFP response vs DMSO            99.6
24          Cc1ccc(NC(=O)COc2ccc(Br)cc2C)cc1  GFP response vs DMSO            99.5
25  O=C(OCC(=O)N1CCN(C(=O)c2ccco2)CC1)c1cc(-c2ccc(F)cc2)nc2ccccc12  GFP response vs DMSO            78.9
26              Cc1cccn2c(N)c(-c3ccccc3)nc12  GFP response vs DMSO            97.4
27  N#C/C(C(=O)Nc1ccc(Cl)cc1)=C(/S)Nc1ccccc1  GFP response vs DMSO            98.8
28       Cc1ccc(C(=O)c2nocc2C(=O)c2cccs2)cc1  GFP response vs DMSO            98.7
29               COc1ccccc1NC(=O)c1ccc(N)cc1  GFP response vs DMSO              98
30  CC(NC(=O)C1CCC(CNS(=O)(=O)c2ccccc2)CC1)c1ccccc1 (stereo not given)  GFP response vs DMSO             101
31  Cc1ccnc(N2C(=O)c3cccc4c([N+](=O)[O-])ccc(c34)C2=O)c1  GFP response vs DMSO             102
32        CCOc1cc(-c2noc(-c3cccnc3)n2)ccc1OC  GFP response vs DMSO            95.8
33   O=[N+]([O-])c1cc(C(F)(F)F)ccc1Sc1ccccn1  GFP response vs DMSO             102
34  Cc1ccc(Cl)cc1N1CCN(C(=O)CSc2ccsc2[N+](=O)[O-])CC1  GFP response vs DMSO              98
35  COC(=O)c1sc(-c2ccc(C(C)(C)C)cc2)cc1NC(=O)CCC(=O)O  GFP response vs DMSO            98.6
36    O=c1[nH]c(CCl)nc2cc(-c3ccc(Cl)cc3)sc12  GFP response vs DMSO            95.8
37   COC(=O)c1ccc2nc(Nc3nc4ccc(F)cc4s3)sc2c1  GFP response vs DMSO             101
38     Cc1ccc2c(c1)/C(=C/c1ccc(F)cc1)C(=O)N2  GFP response vs DMSO            94.5
39  Cc1ccccc1OC1CCN(C(=O)C2CCC(=O)N(C3CCCC3)C2)CC1 (stereo not given)  GFP response vs DMSO            97.6
